pIC50: −log10 of the molar value. Where a name gives a salt, the structure may show the parent alone.
pIC50 data for UniProt:P43405 follow.

Compound	Target desc	pIC50
Cc1nc2cc(Nc3nc4c(-c5ccc(C(=O)N6CCOCC6)cc5)nccn4n3)ccc2[nH]1	UniProt:P43405	4.30 to 5.52
Cn1cc(-c2nccn3nc(Nc4cnn(C5CCNCC5)c4)nc23)cn1 [C28, hydrochloride]	UniProt:P43405	4.30 to 5.52
Cn1cc(-c2nccn3nc(Nc4ccc5c(c4)NC(=O)C5)nc23)cn1	UniProt:P43405	5.52 to 6.52
Cn1cc(-c2nccn3nc(Nc4ccc5c(c4)NC(=O)NC5(C)C)nc23)cn1	UniProt:P43405	> 7.00

* * *

IC50 data for UniProt:P43405 follow.

Molecule	IC50
CC1(C)C(=O)Nc2cc(Nc3nc4c(N5C6CCC5COC6)nccn4n3)ccc21 [C96]	0.1 to 0.3 µM
CC1(C)C(=O)Nc2cc(Nc3nc4c(NS(=O)(=O)c5ccccc5)nccn4n3)ccc21 [E111]	0.3 to 3 µM
CC1Cc2ccccc2N1c1nccn2nc(Nc3ccc4c(c3)NC(=O)C4(C)C)nc12 (centres unmarked) [E137]	< 0.1 µM
CS(=O)(=O)Nc1ccc(-c2nccn3nc(Nc4ccc(N5CCOCC5)cc4)nc23)cc1 [C42]	0.3 to 3 µM
CC(=O)N1CCC(N(C)c2nccn3nc(Nc4ccc5c(c4)NC(=O)C5(C)C)nc23)CC1 [E14]	0.1 to 0.3 µM
Cn1cc(-c2nccc3nc(Nc4ccc5c(c4)NC(=O)CCC5(C)C)nn23)cn1 [E155]	< 0.1 µM
CC1(C)C(=O)Nc2cc(Nc3nc4c(N5CCC6(CCNC6=O)C5)nccn4n3)ccc21 (centres unmarked) [E19]	0.1 to 0.3 µM
Cn1cc(-c2nccn3nc(Nc4ccc(C(C)(C)C)cc4)nc23)cn1 [C62]	0.1 to 0.3 µM

* * *

IC50 data for SYK (Homo sapiens, UniProt P43405) follow.

Compound	Target desc	IC50
CC1(C)CCOc2cc(Nc3nc4c(N5CCC6(CC5)CNC(=O)O6)nccn4n3)ccc21	SYK (Homo sapiens, UniProt P43405)	< 100 nM
COc1cc(Nc2nc3c(N4CCC(O)(CCO)CC4)nccn3n2)cc(OC)c1	SYK (Homo sapiens, UniProt P43405)	300 to 3000 nM
CC1(C)C(=O)Nc2cc(Nc3nc4c(N5CCC(C(N)=O)CC5)nccn4n3)ccc21	SYK (Homo sapiens, UniProt P43405)	< 100 nM
Cn1cc(-c2nccn3nc(Nc4ccc5c(C(C)(C)O)n[nH]c5c4)nc23)cn1	SYK (Homo sapiens, UniProt P43405)	< 100 nM
CC1(C)CCNc2cc(Nc3nc4c(N5CCN6C(=O)CNC(=O)C6C5)nccn4n3)ccc21 (stereo not drawn)	SYK (Homo sapiens, UniProt P43405)	< 100 nM
CC1(C)C(=O)Nc2cc(Nc3nc4c(N5CCc6nc(N)ncc6C5)nccn4n3)ccc21	SYK (Homo sapiens, UniProt P43405)	< 100 nM
CC1(C)C(=O)Nc2cc(Nc3nc4c(O[C@@H]5CN[C@@H](c6ccccc6C(F)(F)F)C5)nccn4n3)ccc21	SYK (Homo sapiens, UniProt P43405)	3000 to 50000 nM
Cn1cc(-c2nccn3nc(Nc4ccc(C(C)(C)O)cc4)nc23)cn1	SYK (Homo sapiens, UniProt P43405)	100 to 300 nM
CC1(C)C(=O)Nc2cc(Nc3nc4c(-c5cnn(C6CCNCC6)c5)nccn4n3)ccc21	SYK (Homo sapiens, UniProt P43405)	< 100 nM

* * *

pIC50 data for SYK (Homo sapiens) follow.
pIC50: −log10 of the molar value.
Quantity kind: pIC50

Molecule	Experimental value
Cn1cc(-c2nccn3nc(Nc4ccc5c(C(=O)C(F)(F)F)c[nH]c5c4)nc23)cn1 [C112]	5.52 to 6.52
CC1(C)C(=O)Nc2cc(Nc3nc4c(N5C[C@H](O)C[C@@H]5c5ccccc5)nccn4n3)ccc21 [E6]	6.52 to 7.00
CC1(C)C(=O)Nc2cc(Nc3nc4c(N[C@H]5CC[C@H](O)CC5)nccn4n3)ccc21 [C76]	5.52 to 6.52
CC1(C)C(=O)Nc2cc(Nc3nc4c(N5C[C@H](OC=O)C[C@@H]5c5ccccc5C(F)(F)F)nccn4n3)ccc21 [E85]	4.30 to 5.52
CC1=NOCC2(CCN(c3nccn4nc(Nc5ccc6c(c5)NC(=O)C6(C)C)nc34)CC2)C1 [E58]	6.52 to 7.00
C[S+]([O-])c1ccc(Nc2nc3c(-c4ccccc4-c4ccccc4)nccn3n2)cc1 (centres unmarked) [C31]	4.30 to 5.52
CC1(C)C(=O)Nc2cc(Nc3nc4c(N5CCC6(C5)OCCO6)nccn4n3)ccc21 [E10]	6.52 to 7.00
CC(C)(OC(O)C(F)(F)F)c1ccc(Nc2nc3c(N4CCCCCC4)nccn3n2)cc1N (centres unmarked) [E127]	5.52 to 6.52
COc1ccc(Nc2nc3c(-c4ccccc4-c4ccccc4)nccn3n2)cc1 [C1]	4.30 to 5.52
CC1(C)C(=O)Nc2cc(Nc3nc4c(N5CCCNCC5)nccn4n3)ccc21 [E68]	> 7.00
COc1cc(Nc2nc3c(N4CCNC(=O)C4)nccn3n2)cc(OC)c1 [C43]	5.52 to 6.52

These entries and their values trace back to patent US9120804B2.
